Tested on: BEAS-2B
assay method text: Cytotoxicity against human BEAS2B cells after 48 hrs by PrestoBlue staining based fluorescence assay
Assay type: cell-based
readout type: CC50

Please review the entries below; each comes with its answer.
[
  {
    "smiles entry": "Cc1ccoc1C(=O)N1CCCn2cc(C(=O)Nc3ccccc3)cc2C1",
    "measurement target": "BEAS-2B",
    "readout type": "CC50",
    "obs value": "> 90 µM"
  },
  {
    "smiles entry": "O=C(Nc1ccccc1F)c1cc2n(n1)CCCN(C(=O)c1ccco1)C2",
    "measurement target": "BEAS-2B",
    "readout type": "CC50",
    "obs value": "3.7 µM"
  },
  {
    "smiles entry": "Cc1ccoc1C(=O)N1CCCn2nc(CNc3ccccc3)cc2C1",
    "measurement target": "BEAS-2B",
    "readout type": "CC50",
    "obs value": "10 µM"
  }
]

Moving on to another compound below.
Asked: Field request: CC50 | item: COc1ccc(NC(=O)c2cc3n(n2)CCCN(C(=O)c2occc2C)C3)cc1
Given back: 90 µM

Every entry's value here was drawn from ChEMBL document CHEMBL4007453.
